Taken from ChEMBL document CHEMBL1201862.

Tested on: SNB-78
ASSAY_EXPLANATION: NCI tumour cell line growth inhibition, 48 h
The source made the active and inactive calls. Rule as the data show it: active = GI50 up to about 1.1 µM and inactive = higher.
READOUT_NAME: GI50

{"COMPOUND": "O=c1[nH]c(S)nc2c1sc(=S)n2-c1ccccc1", "SYSTEM": "SNB-78", "ENDPOINT_RESULT": "> 100 µM (inactive)"}
{"COMPOUND": "CN(C)C(=S)/N=c1\\ss/c(=N\\C(=S)N(C)C)n1-c1ccc(Cl)cc1", "SYSTEM": "SNB-78", "ENDPOINT_RESULT": "> 100 µM (inactive)"}
{"COMPOUND": "NC1=NS(=O)(=O)N=C(N)C1=Cc1ccc([N+](=O)[O-])o1", "SYSTEM": "SNB-78", "ENDPOINT_RESULT": "19.6 µM (inactive)"}
{"COMPOUND": "O=C1C(Cl)=C(Cl)C(=O)N1C1C2CC3CC(C2)CC1C3 (configuration not stated)", "SYSTEM": "SNB-78", "ENDPOINT_RESULT": "> 100 µM (inactive)"}
{"COMPOUND": "COc1ccc(-c2ccccc2)c(N/N=C2\\CCCNC2=O)c1", "SYSTEM": "SNB-78", "ENDPOINT_RESULT": "93.5 µM (inactive)"}
{"COMPOUND": "C=CCn1c2c(sc1=S)C(S)NC=N2 (configuration not stated)", "SYSTEM": "SNB-78", "ENDPOINT_RESULT": "78.2 µM (inactive)"}
{"COMPOUND": "N#CCC(=O)N/N=C(\\C(=O)Nc1ccc(Cl)c(Cl)c1)C1CN(c2ccccc2)N=C1N (configuration not stated)", "SYSTEM": "SNB-78", "ENDPOINT_RESULT": "> 100 µM (inactive)"}
{"COMPOUND": "CC(C)c1ccccc1NC(=O)CCC(=O)NN", "SYSTEM": "SNB-78", "ENDPOINT_RESULT": "> 100 µM (inactive)"}
{"COMPOUND": "O=C(CC1(O)C(=O)Nc2ccc(Br)cc21)c1cccc([N+](=O)[O-])c1 (configuration not stated)", "SYSTEM": "SNB-78", "ENDPOINT_RESULT": "37.8 µM (inactive)"}
{"COMPOUND": "NCCCCNCCCNC(=O)c1nc(-c2csc(CCN)n2)sc1Cl", "SYSTEM": "SNB-78", "ENDPOINT_RESULT": "> 100 µM (inactive)"}
{"COMPOUND": "NNC(=S)N/N=C(\\c1nc2ccc(Cl)cc2nc1O)C(O)c1cccc([N+](=O)[O-])c1 (configuration not stated)", "SYSTEM": "SNB-78", "ENDPOINT_RESULT": "> 100 µM (inactive)"}
{"COMPOUND": "O=C1C2C3C=CC(C2C(=O)N1CO)C1C2C(=O)N(CO)C(=O)C2C31 (configuration not stated)", "SYSTEM": "SNB-78", "ENDPOINT_RESULT": "> 100 µM (inactive)"}
{"COMPOUND": "O=C(O)C1c2ccccc2C(C(=O)O)c2ccccc21 (configuration not stated)", "SYSTEM": "SNB-78", "ENDPOINT_RESULT": "> 100 µM (inactive)"}
{"COMPOUND": "CC(C)(C)OC(=O)C1=C(O)C(C(=O)OC(C)(C)C)C23CCCCC12C(C(=O)OC(C)(C)C)C(O)=C3C(=O)OC(C)(C)C (configuration not stated)", "SYSTEM": "SNB-78", "ENDPOINT_RESULT": "> 100 µM (inactive)"}
{"COMPOUND": "COC(=O)N/N=C(\\c1nc2ccc(Cl)cc2nc1O)C(O)c1ccc([N+](=O)[O-])cc1 (configuration not stated)", "SYSTEM": "SNB-78", "ENDPOINT_RESULT": "> 100 µM (inactive)"}
{"COMPOUND": "C[n+]1c2ccccc2c(NC(CCCNC(=N)N)C(=O)O)c2ccccc21 (configuration not stated)", "SYSTEM": "SNB-78", "ENDPOINT_RESULT": "> 100 µM (inactive)"}
{"COMPOUND": "O=[N+]([O-])c1nccn1COCCF", "SYSTEM": "SNB-78", "ENDPOINT_RESULT": "> 100 µM (inactive)"}
{"COMPOUND": "Cn1cc(C(=O)C2CCCCC2)ccc1=O", "SYSTEM": "SNB-78", "ENDPOINT_RESULT": "> 100 µM (inactive)"}
{"COMPOUND": "Nc1ccn(CC(CO)CC(c2ccccc2)P(=O)(O)O)c(=O)n1 (configuration not stated)", "SYSTEM": "SNB-78", "ENDPOINT_RESULT": "> 100 µM (inactive)"}
{"COMPOUND": "COC(=O)/C(C#N)=C1\\CCC(OC)N1C (configuration not stated)", "SYSTEM": "SNB-78", "ENDPOINT_RESULT": "> 100 µM (inactive)"}
{"COMPOUND": "CN1N=C(N)c2cn(C3OC(COP(=O)(O)O)C(O)C3O)c3ncnc1c23 (configuration not stated)", "SYSTEM": "SNB-78", "ENDPOINT_RESULT": "79.6 µM (inactive)"}
{"COMPOUND": "CN1CCc2cc(O)c3cc2C1Cc1ccc(cc1)Oc1cc(ccc1O)CC1c2c(cc4c(c2O3)OCO4)CCN1C (configuration not stated)", "SYSTEM": "SNB-78", "ENDPOINT_RESULT": "> 100 µM (inactive)"}

###

System: M14
ASSAY_EXPLANATION: NCI tumour cell line growth inhibition, 48 h
Where a name gives a salt, the structure may show the parent alone. Active and inactive are the calls of the source. Cut-off read from the data, not from the text of the source: active = GI50 up to about 1.1 µM and inactive = higher.

{"COMPOUND": "Cc1cc(N)c2cc(NC(=O)Nc3ccc4nc(C)cc(N)c4c3)ccc2n1", "GI50": "> 100 µM (inactive)"}
{"COMPOUND": "O=S1(=O)OCCOS(=O)(=O)C1(Br)Br", "GI50": "> 100 µM (inactive)"}
{"COMPOUND": "O=c1c2cc(Br)ccc2oc2nc3n(c(=O)c12)CCCS3", "GI50": "> 100 µM (inactive)"}
{"COMPOUND": "CNNCc1ccc(C(=O)NC(C)C)cc1 [PROCARBAZINE HYDROCHLORIDE]", "GI50": "> 500 µM (inactive)"}
{"COMPOUND": "COc1ccc(N2CN3OC(=O)N(c4ccc(OC)cc4)[C@@]3(c3ccccc3)C2)cc1", "GI50": "34.4 µM (inactive)"}
{"COMPOUND": "CC(=O)NNc1nc(C)c(C(/C=C/c2ccc([N+](=O)[O-])cc2)=N/NC(N)=O)s1", "GI50": "> 100 µM (inactive)"}
{"COMPOUND": "COc1c(/C=C/C=O)cc2c(c1OC)OCO2", "GI50": "24.2 µM (inactive)"}
{"COMPOUND": "Cc1cc(=O)oc2c(C)c(OCCCOc3ccc4c(C)cc(=O)oc4c3C)ccc12", "GI50": "> 100 µM (inactive)"}
{"COMPOUND": "O=CC[C@H]1CCc2ccccc2C12CCC(=O)CC2", "GI50": "86.3 µM (inactive)"}
{"COMPOUND": "COc1ccc(/C(Cl)=C(\\C=O)c2ccc(Cl)cc2)cc1", "GI50": "14.1 µM (inactive)"}
{"COMPOUND": "Cc1cn(C2OC(CO)C(O)C2F)c(=O)[nH]c1=O (centres undefined)", "GI50": "41.8 µM (inactive)"}
{"COMPOUND": "O=C1C2C(C(=O)N1c1ccccc1)C1c3ccccc3C2C2C(=O)N(c3ccccc3)C(=O)C21 (centres undefined)", "GI50": "2.85 µM (inactive)"}
{"COMPOUND": "Cc1nnc(SCc2nc(C#N)c(C#N)nc2CSc2nnc(C)s2)s1", "GI50": "16.6 µM (inactive)"}
{"COMPOUND": "O=C(NNC(=O)c1ccncc1)c1ccncc1", "GI50": "> 100 µM (inactive)"}
{"COMPOUND": "CC/C(SC)=[N+](\\C)[O-]", "GI50": "> 100 µM (inactive)"}
{"COMPOUND": "O=C1c2cccc([N+](=O)[O-])c2C(=O)N1Cc1ccccc1", "GI50": "> 100 µM (inactive)"}
{"COMPOUND": "Clc1cc(Cl)ncn1", "GI50": "> 100 µM (inactive)"}
{"COMPOUND": "COc1ccc(-n2c3c(c4cc(O)ccc42)C(=O)c2ccccc2C3=O)cc1", "GI50": "> 100 µM (inactive)"}
{"COMPOUND": "N#[N+][c-]1c(-c2ccccc2)n[nH]c1=O", "GI50": "> 100 µM (inactive)"}
{"COMPOUND": "COc1ccc(/C=C2\\Sc3nnc(CNc4ccc(Cl)cc4)n3N=C2c2cc(F)c(Cl)cc2Cl)cc1OC", "GI50": "59.8 µM (inactive)"}
{"COMPOUND": "NCCCCN(CCCN)Cc1ccc2ccccc2c1", "GI50": "57 µM (inactive)"}
{"COMPOUND": "CNc1ccc(/C=C2\\C=Cc3ccccc32)cc1", "GI50": "16.3 µM (inactive)"}
{"COMPOUND": "CCOC(=O)c1c(SC)nc(-c2ccc(Cl)cc2)sc1=N.[O-][Cl+3]([O-])([O-])O", "GI50": "45.4 µM (inactive)"}
{"COMPOUND": "CN(C)c1cccc(NC2=NCCO2)c1", "GI50": "37.5 µM (inactive)"}
